test target: ABHD12 (Homo sapiens)
Sequence (Q8N2K0 whole entry, species assumed): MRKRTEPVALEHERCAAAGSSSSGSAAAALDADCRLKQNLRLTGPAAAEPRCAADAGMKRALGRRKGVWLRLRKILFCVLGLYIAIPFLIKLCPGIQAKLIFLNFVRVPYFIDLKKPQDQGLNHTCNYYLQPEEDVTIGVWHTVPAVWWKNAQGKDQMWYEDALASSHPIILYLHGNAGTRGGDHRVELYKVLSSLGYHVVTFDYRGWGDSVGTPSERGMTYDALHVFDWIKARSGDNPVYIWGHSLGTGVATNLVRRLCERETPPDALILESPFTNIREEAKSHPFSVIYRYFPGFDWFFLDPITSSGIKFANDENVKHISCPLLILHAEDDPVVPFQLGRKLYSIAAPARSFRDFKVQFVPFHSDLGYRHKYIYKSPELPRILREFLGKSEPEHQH
pIC50: −log10 of the molar value.
measurement name: pIC50

## Input Report measured pIC50 on ABHD12 (Homo sapiens); entry: Cn1c(C(C)(C)C)cc(=NC(=O)c2cc(C(F)(F)F)ccc2OCC(C)(C)O)n1CC1CCC1
## Output < 5.00

---

assay procedure: Single-dose pharmacokinetics in male Wistar rats
Format: in vivo
test conditions: rat, plasma, po, 26 mg kg^–1 p.o., read-out: Cmax (molar)
measurement name: Cmax (µM)
Number in µM, nothing else.

## Input // Input: Cn1c(C(C)(C)C)cc(=NC(=O)c2cc(C(F)(F)F)ccc2OCC(C)(C)O)n1CC1CCC1 . Output its Cmax only.
## Output 3.5

---

assay procedure: Octanol/water distribution coefficient (logD), CAMDIS assay
Assay type: physicochemical
test conditions: Table 3; read-out: clogP (cell says logD)
measurement name: logD
Please reply with the value in numeric form only.

## Input Identify measured logD associated with Cn1c(C(C)(C)C)cc(=NC(=O)c2cc(C(F)(F)F)ccc2OCC(C)(C)O)n1CC1CCC1
## Output 3.34

---

test target: COX-2 (Homo sapiens, UniProt P35354)
Sequence (P35354 18-604): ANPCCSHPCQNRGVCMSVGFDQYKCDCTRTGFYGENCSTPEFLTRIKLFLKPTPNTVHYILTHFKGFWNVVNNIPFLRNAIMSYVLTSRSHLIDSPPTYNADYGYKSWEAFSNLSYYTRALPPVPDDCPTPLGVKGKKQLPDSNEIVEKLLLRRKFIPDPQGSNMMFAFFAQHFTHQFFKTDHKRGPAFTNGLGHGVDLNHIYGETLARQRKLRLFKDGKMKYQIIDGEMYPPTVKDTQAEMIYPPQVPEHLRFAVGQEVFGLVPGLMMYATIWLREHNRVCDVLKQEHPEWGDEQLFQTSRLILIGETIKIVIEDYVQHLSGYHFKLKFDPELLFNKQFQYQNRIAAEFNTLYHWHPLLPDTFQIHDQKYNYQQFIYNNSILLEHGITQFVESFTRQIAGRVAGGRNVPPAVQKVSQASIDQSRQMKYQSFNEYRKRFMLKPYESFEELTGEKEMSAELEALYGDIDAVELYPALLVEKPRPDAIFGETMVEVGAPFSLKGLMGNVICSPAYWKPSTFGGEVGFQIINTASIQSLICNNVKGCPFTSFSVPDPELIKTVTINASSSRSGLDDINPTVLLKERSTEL
pIC50: −log10 of the molar value.
measurement name: pIC50

## Input Look up COX-2 (Homo sapiens, UniProt P35354) data: pIC50 of Cn1c(C(C)(C)C)cc(=NC(=O)c2cc(C(F)(F)F)ccc2OCC(C)(C)O)n1CC1CCC1 , then report it.
## Output < 5.00

---

assay procedure: Single-dose pharmacokinetics in male Wistar rats
Format: in vivo
test conditions: rat, plasma, po, 26 mg kg^–1 p.o.
measurement name: bioavailability (%)
Write the answer as a number in %, unit excluded.

## Input Return value of bioavailability for input Cn1c(C(C)(C)C)cc(=NC(=O)c2cc(C(F)(F)F)ccc2OCC(C)(C)O)n1CC1CCC1 , no commentary.
## Output 87

---

assay procedure: Single-dose pharmacokinetics in male Wistar rats
Format: in vivo
test conditions: rat, plasma, iv, 1 mg kg^–1 i.v., read-out: Cmax (molar)
measurement name: Cmax (nM)
The response must be a number in nM with no trailing unit.

## Input For the compound Cn1c(C(C)(C)C)cc(=NC(=O)c2cc(C(F)(F)F)ccc2OCC(C)(C)O)n1CC1CCC1 [RNB-61] , give its measured Cmax value.
## Output 1280
